These entries and their values trace back to patent US20250026813A1.

- tested-system: SARS-CoV-2 spike protein receptor binding domain (isolated RBD) (SARS-CoV-2, UniProt P0DTC2 319-541)
Recorded koff values for a group of binders are listed next.
Report the value in s⁻¹ with no unit label.

Some entries whose results are on file:
IMPI-017 (antibody, V domains shown) VH: EVQLVESGGGLIQPGGSLRLSCAAAGLTVSSNYMNWVRQVPGKGLEWVSVIYSGGSTYYADSVKGRFTISRDNSKNTLYLQMNSLRAEDTAVYYCARDLGTLGMDVWGQGTTVTVSS VL: DIQLTQSPSFLSASVGDRVTITCWASQGISTYLAWYQQKPGKAPKLLIYAASTLQSGVPSRFSGSGSGTEFTLTISSLQPEDFATYYCQQLNSYLPTFGQGTKVEIK
0.000976
IMPI-054 (antibody, V domains shown) VH: EVQLVESGGGLIQPGGSLRLSCAASGLTVSSNYMSWVRQAPGKGLEWVSIIYSGGSTYYADSVKGRFTISRDNSKNTLYLQMNSLRAEDTAVYYCARLGGYYYYGMDVWGQGTTVTVSS VL: DIQMTQSPSSLSASVGERVTITCQASQDIRNYLNWYQKKPGKAPKLLIYDSSNLETGVPSRFSGSGSGTDFTFTISSLQPEDIATYYCQQYDNLPITFGQGTRLEIK
0.000627
IMPI-024 (antibody, V domains shown) VH: EVQLVQSGAEVKKPGESLKISCKGSGYSFTSYWIGWVRQMPGKGLEWMGIIYPGDSDTRYSPSFQGQVTISADKSISTAYLQWSSLKASDTAMYYCVRSYNWNYFDYWGQGTLVTVSS VL: AIQLTQSPSSLSASVGDRVTITCRASQGISSGLAWYQQKAGKAPKLLIYDVSSLESGVPSRFSGSGSGTDFTLTISSLQPEDFATYYCQQFLSYPWTFGQGTKVEIK
0.00134

Entry IMPI-042 (antibody, V domains shown) VH: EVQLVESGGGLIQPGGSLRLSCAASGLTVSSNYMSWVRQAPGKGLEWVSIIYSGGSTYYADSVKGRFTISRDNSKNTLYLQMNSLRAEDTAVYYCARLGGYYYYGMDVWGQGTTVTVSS VL: DIQMTQSPSSLSASVGERVTITCQASQDIRNYLNWYQKKPGKAPKLLIYDSSNLETGVPSRFSGGGSGTDFTFTISSLQPEDIATYYCQQYDNLPITFGQGTRLEIK has what koff?
0.000617
